# procedure-summary: budding yeast growth modifiers under rapamycin – strain BY4716, OD600, 96 h, primary screen (AID 1091); also: test concentration not given here
# condition-label: S. cerevisiae BY4716 + rapamycin, higher = more signal, called active from +8 up or from −8 down
Entry flag: criterion met if z-score reaches 0.07; criterion not met if it does not.

Would you say CN1C(=O)C2C=CC(C(O)C3CCCCC3)N(N(c3ccccc3)c3ccccc3)C2C1=O (stereo not drawn) shows z-score at minimum 0.07? criterion met

Query Cc1cc(C)c(C(O)C2C=CC3C(=O)N(c4ccccc4)C(=O)C3N2Nc2ccccc2)c(C)c1 (stereo not drawn) next criterion not met

Query `CN(C)C(=O)[C@@]1(Cc2ccccc2N=[N+]=[N-])N=C(c2ccc(OCCCO)cc2)O[C@H]1c1ccccc1N=[N+]=[N-]` next criterion met

Query CC(C)C(CO)N1C(=O)[C@@H]2[C@H]3C(=O)OCC=C[C@H]3OC23C=CCN(CCN2CCOCC2)C(=O)[C@@H]13 (stereo partly drawn) next criterion met

Query O=C(C=C(CC(O)c1cccc(Cl)c1)OCCF)OCCF (stereo not drawn) next criterion not met

Query `C#CCOC(=O)N[C@H](C=CCCCC)c1ccccc1` next criterion not met

Query `COC(=O)[C@@]1(Cc2ccc(F)cc2)[C@H]2c3cc(C(=O)N4CCCC4)n(Cc4ccccc4)c3C[C@H]2CN1C(=O)c1ccccc1` next criterion met

Query `COc1ccc([Si](C)(C)[C@@H]2[C@@H](CC(=O)N(CCO)Cc3ccccc3)O[C@]3(C(=O)N(C)c4c(Br)cc(C)cc43)[C@H]2C)cc1` next criterion met
